# System: SYO-1 tumor spheroids, viability % test/control
# assay-procedure: Anticancer human tumor SYO-1 cell line growth inhibition;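 note: spheroids exposed to agents for 7 days before viability read; 100% = DMSO vehicle control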
# test-settings: second compound 0.0949 µM; first compound 1 µM; stronger effect = lower value; spheroids with HUVEC and MSC
parameter: viability, T/C (%)
API: value field is a number in %; no unit string.

[[record]]
compound = "COc1cc(C)[nH]c(=O)c1CN1CCc2c(Cl)cc(C(OC)C3COC3)c(Cl)c2C1=O (stereo not drawn) + CC[C@@]1(O)C(=O)OCc2c1cc1n(c2=O)Cc2cc3c(CN(C)C)c(O)ccc3nc2-1"
endpoint_result = 1.68

[[record]]
compound = "Cc1cc(C)c(CNC(=O)c2cc(-c3ccc(CN4CCOCC4)cc3)cc3c2cnn3C2CCCC2)c(=O)[nH]1 + CC[C@@]1(O)C(=O)OCc2c1cc1n(c2=O)Cc2cc3c(CN(C)C)c(O)ccc3nc2-1"
endpoint_result = 1.89


The record that follows has no viability, T/C shown yet.
## Input Form field - read-out: viability, T/C; system: SYO-1 tumor spheroids, viability % test/control; submitted item: [2H]c1nc(C)nc([2H])c1-c1cc(NC[C@@H](C)c2cccc3c(C(=O)NC)ccnc23)ncn1 + CC[C@@]1(O)C(=O)OCc2c1cc1n(c2=O)Cc2cc3c(CN(C)C)c(O)ccc3nc2-1
## Output 1.39

This collection of values is drawn from PubChem BioAssay AID1845219.
